# method_summary: recombinant UMI read abundance after kanamycin selection (control-corrected) (log10(CPM+1)); higher = more efficient recombination; extreme values may be limits of the assay; sequences stand for … in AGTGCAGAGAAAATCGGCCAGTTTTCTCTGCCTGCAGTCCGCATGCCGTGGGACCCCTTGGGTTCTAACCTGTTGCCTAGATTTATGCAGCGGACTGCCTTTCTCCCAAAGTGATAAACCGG…AGGTTGGTTTCACT; site = the 11-nt donor;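 note: IS621 bridge recombinase in Escherichia coli cells against a fixed T5 target plasmid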
Property: recombinant UMI read abundance (log10); scope: individual sequences
# output: bare number, no unit

CTCGAAACATGGACCGGTTTTCCCGGTAATCCGTATTTGCA (site CTAGAAACTTG); 0
ATGTATGCATGGACCGGTTTTCCCGGTAATCCGTATTTGGC (site ATGTAAGCTGC); 1.52
CTCATACCATGGACCGGTTTTCCCGGTAATCCGTATTTGGT (site CTCATACCTAC); 0
AACCGTCCATGGACCGGTTTTCCCGGTAATCCGTATTTGGT (site AACCGTCCTAT); 0.00572
GAGTGCCCATGGACCGGTTTTCCCGGTAATCCGTATTTGCC (site GAGTGCCCTGG); 0
AATTATTCATGGACCGGTTTTCCCGGTAATCCGTATTTGGA (site AATTATCCTTC); 0.553

Exam item: What does the data say about its recombinant UMI read abundance (log10)? Entry: GTAGTGGCATGGACCGGTTTTCCCGGTAATCCGTATTTGCG (site GTAGTAGCTCG)
Marked response: 2.37

Exam item: What would you report for CCGAATACATGGACCGGTTTTCCCGGTAATCCGTATTTGGC (site CCTAATACTGC) ?
Marked response: 0

Exam item: What would you report for CGAGGAACATGGACCGGTTTTCCCGGTAATCCGTATTTGGG (site CGAGGACCTCC) ?
Marked response: 0.0124

Sourced from the supplement of paper PMC11208160
